molecular target: UniProtKB I3LUI7
Sequence (I3LUI7 19-1212): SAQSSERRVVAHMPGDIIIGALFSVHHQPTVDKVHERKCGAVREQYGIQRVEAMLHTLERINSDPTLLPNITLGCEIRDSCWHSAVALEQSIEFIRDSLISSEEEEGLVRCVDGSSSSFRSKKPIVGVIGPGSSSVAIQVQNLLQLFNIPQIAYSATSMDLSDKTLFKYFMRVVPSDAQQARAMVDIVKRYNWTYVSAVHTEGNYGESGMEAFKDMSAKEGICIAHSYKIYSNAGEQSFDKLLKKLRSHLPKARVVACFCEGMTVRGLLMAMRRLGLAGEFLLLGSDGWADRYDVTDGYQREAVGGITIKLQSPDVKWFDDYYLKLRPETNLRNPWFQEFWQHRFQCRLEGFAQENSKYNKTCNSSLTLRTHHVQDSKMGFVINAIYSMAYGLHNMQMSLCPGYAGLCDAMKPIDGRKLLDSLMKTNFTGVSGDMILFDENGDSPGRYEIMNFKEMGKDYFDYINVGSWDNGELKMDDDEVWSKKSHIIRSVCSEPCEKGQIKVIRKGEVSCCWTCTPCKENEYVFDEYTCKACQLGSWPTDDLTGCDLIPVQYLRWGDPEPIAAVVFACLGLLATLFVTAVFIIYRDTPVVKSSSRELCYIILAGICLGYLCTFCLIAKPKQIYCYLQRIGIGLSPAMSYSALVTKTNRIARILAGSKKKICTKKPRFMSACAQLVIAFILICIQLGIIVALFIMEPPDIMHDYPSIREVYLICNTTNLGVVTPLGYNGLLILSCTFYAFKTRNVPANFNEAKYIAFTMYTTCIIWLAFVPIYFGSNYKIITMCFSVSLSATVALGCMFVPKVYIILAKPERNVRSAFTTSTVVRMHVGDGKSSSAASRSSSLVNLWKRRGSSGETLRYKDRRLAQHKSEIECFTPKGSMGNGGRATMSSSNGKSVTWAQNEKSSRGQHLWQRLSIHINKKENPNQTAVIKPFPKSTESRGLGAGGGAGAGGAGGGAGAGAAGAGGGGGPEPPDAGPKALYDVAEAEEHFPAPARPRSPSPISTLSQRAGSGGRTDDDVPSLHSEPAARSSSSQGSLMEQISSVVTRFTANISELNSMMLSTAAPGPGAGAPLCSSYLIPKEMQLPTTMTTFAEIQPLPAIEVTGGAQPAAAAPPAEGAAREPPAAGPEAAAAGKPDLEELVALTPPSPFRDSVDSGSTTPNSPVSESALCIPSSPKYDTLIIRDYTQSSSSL
Counter-ions that a name gives are not always drawn.
Quantity: pIC50
Entry type: numeric. Quantity: pIC50, the -log10 of concentration in molar units.

// solved cases for pIC50 follow
Cc1ccnc(C#Cc2ccc(-c3nc4cnccn4c3NC(C)(C)C)s2)c1 [Example 130, hydrochloride] :: 7.43
CC(C)(C)Nc1c(-c2cnc(C#Cc3ccncc3)s2)nc2cnccn12 [Example 177] :: 7.80
CSc1cccc(C#Cc2ccc(-c3nc4cnccn4c3NC(C)(C)C)s2)c1 [Example 173] :: 6.10
CCN(CC)c1c(-c2ccc(C#Cc3ccccc3)s2)nc2cnccn12 [Example 93] :: 6.60
Nc1c(-c2ccc(C#Cc3ccccn3)s2)nc2cnccn12 [Example 134, hydrochloride] :: 6.24
CC(C)(C)Nc1c(-c2ccc(C#Cc3cccs3)s2)nc2cnccn12.Cl [Example 110, hydrochloride] :: 7.31
CC(C)(C)Nc1c(-c2ccc(C#Cc3cccnc3)s2)nc2cnccn12 [Example 82] :: 6.70

Kindly review the next molecule as well.
The molecule identified as CNc1c(-c2ccc(C#Cc3ccccc3)s2)nc2cnccn12 [Example 66] registered its pIC50 at 5.50
